test-protocol: Human HepG2 cell viability assay in 384 well format
Format: toxicity, cell-based
Parameters: dose 125 nL, time 70.5 hour; concentration not given beside the values
condition-description: HepG2 cells, read-out: Inhibition
I'd be grateful if you could share measured cytotoxicity at 70.5 h for these entries.
Use % as the unit, but write only the number.

Item: Cc1csc2c(C3CCCN(C(=O)CCCn4cncn4)C3)nc(C)n12 (stereo unspecified) | cytotoxicity at 70.5 h: 2.61

Item: `Cc1ccc(OC2(C(=O)O)CCN(C(=O)c3ccccc3F)CC2)cn1` | cytotoxicity at 70.5 h: -3.34

Item: `O=C(NC1CCCCC1)c1c(F)cccc1F` | cytotoxicity at 70.5 h: 4.08

Item: `COC[C@@H]1CCCN1C(=O)c1cc(-c2cccc(OC)c2)n[nH]1` | cytotoxicity at 70.5 h: -2.07

Item: `CNC(=O)c1ccc2c(c1)C1(CCN(C(C)C)CC1)C(=O)N2` | cytotoxicity at 70.5 h: 2.6

Item: `Cc1c(C(=O)N2CCN(C)CC2)n(C)c2ccc(Cl)cc12` | cytotoxicity at 70.5 h: -11.7

----------
test-protocol: Human HepG2 cell viability assay in 384 well format
Type: toxicity, cell-based
Design: dose 125 nL, time 70.5 hour; concentration not given beside the values
condition-description: HepG2 cells, read-out: Inhibition
I'd be grateful if you could share measured cytotoxicity at 70.5 h for these entries.
Include the unit after the number when you answer.

Item: NC(=O)C1CCN(c2ncccc2C(=O)N2CCc3ccccc32)C1 (stereo unspecified) | cytotoxicity at 70.5 h: -5.78%

Item: `Cc1cc(C)nc(N2C[C@H]3OC(=O)N(CCc4cccc(Cl)c4)[C@H]3C2)n1` | cytotoxicity at 70.5 h: -0.529%

Item: `O=C1CC[C@H]2CN(C3CCOCC3)CC[C@H]2N1CCC1=CCCCC1` | cytotoxicity at 70.5 h: 2.84%

Item: `O=c1c2ccccc2ncn1Cc1cc(C2CC2)[nH]n1` | cytotoxicity at 70.5 h: 13.8%

Item: CCOCC(O)CN1CCN(C(=O)C2CC2)CC1 (stereo unspecified) | cytotoxicity at 70.5 h: -13.7%

Item: CNS(=O)(=O)CC(=O)NC(C)Cc1ccc(-c2ccccc2)cc1 (stereo unspecified) | cytotoxicity at 70.5 h: 1.33%

Item: `CC(C)c1nnc2n1CCN(C(=O)c1cnc(C3CC3)s1)C2` | cytotoxicity at 70.5 h: -7.9%

Item: `CC(C)c1nn(C)c(N(C)C)c1CNCc1ccnc(N(C)C)c1` | cytotoxicity at 70.5 h: -0.315%

Item: `Cc1ccccc1N(CC(=O)NCCc1nnc2n1CCC2)S(C)(=O)=O` | cytotoxicity at 70.5 h: -4.09%

Item: O=C1NCC(c2ccc(F)cc2)Cc2[nH]c(CCN3CCCC3)nc21 (stereo unspecified) | cytotoxicity at 70.5 h: -20.9%

Item: `COc1cc(OC)c(CNC(=O)NCC(=O)N(C)C)c(OC)c1` | cytotoxicity at 70.5 h: 1.38%

Item: `COCC(=O)Nc1cnc(N2CCCC2)nc1` | cytotoxicity at 70.5 h: -0.927%

Item: `O=C(CN1CCC(c2ccnn2CCO)CC1)NCc1cccs1` | cytotoxicity at 70.5 h: 18.4%

Item: O=C(NCC(Cc1cccc(F)c1)n1cccc1)C1CC1 (stereo unspecified) | cytotoxicity at 70.5 h: -16.2%

Item: `Cc1nnc(CN(Cc2ccco2)Cc2cccc3c2OCO3)n1C` | cytotoxicity at 70.5 h: -6.18%

Item: Cn1cnnc1C1CCCN(C(=O)NCCOc2ccccc2)C1 (stereo unspecified) | cytotoxicity at 70.5 h: 40.2%

Item: `CC(=O)NCCNC(=O)NCc1ccc(Br)cc1Cl` | cytotoxicity at 70.5 h: -0.47%

Item: CCOC(C)c1noc(CN2CCN(CC3CCCC3)CC2)n1 (stereo unspecified) | cytotoxicity at 70.5 h: -6.48%

Item: `Cc1cc(F)ccc1S(=O)(=O)N1C[C@@H](C)[C@@](C)(O)C1` | cytotoxicity at 70.5 h: -3.25%

Item: `COc1ccccc1OCC(=O)n1nc(C)c(C)c1C` | cytotoxicity at 70.5 h: 6.31%

Item: O=C(c1ccc(=O)[nH]n1)N1CCCC(O)(CN2CCC(F)(F)CC2)CC1 (stereo unspecified) | cytotoxicity at 70.5 h: -8.65%

Item: `O=C(Cc1cccs1)N1CC[C@H]2[C@@H]1CCC(=O)N2c1cccnc1` | cytotoxicity at 70.5 h: 2.43%

Item: `CCCn1cc(Cl)c(C(=O)N2C[C@@H](O)[C@H](Oc3ccccc3)C2)n1` | cytotoxicity at 70.5 h: 1.62%

Item: [O-][S+](Cc1c(F)cccc1Cl)Cc1nnnn1C1CC1 (stereo unspecified) | cytotoxicity at 70.5 h: -14.6%

Item: `CN(C)c1cc(C(=O)N2CCCN(c3cccnn3)CC2)ccn1` | cytotoxicity at 70.5 h: -9.96%

Item: `O=C(c1cc(C2CC2)[nH]n1)N1CCN(Cc2ccncc2)CC1` | cytotoxicity at 70.5 h: -11.9%

Item: CCC(C)(CC(=O)OC)NC(=O)c1ccc2[nH]ccc2c1 (stereo unspecified) | cytotoxicity at 70.5 h: -10.1%

Item: Cc1cnn(CC2CN(CC(=O)NCc3ccccn3)CCO2)c1 (stereo unspecified) | cytotoxicity at 70.5 h: 14.8%

Item: COc1ccc(CN(CC2CCCO2)C(=O)CN2CCOC2=O)cc1 (stereo unspecified) | cytotoxicity at 70.5 h: -14.7%

Item: `COCC(=O)N1CCO[C@H]2[C@H](OC)CC[C@@H]21` | cytotoxicity at 70.5 h: -16.2%

Item: CC(CN1CCCC1=O)NC(=O)c1ccc(-c2ccco2)[nH]c1=O (stereo unspecified) | cytotoxicity at 70.5 h: -96.6%

Item: CN(C)Cc1ccc(C2CCCCN2C(=O)c2cccnn2)cc1 (stereo unspecified) | cytotoxicity at 70.5 h: 2.83%

Item: `COc1cc(NC(=O)c2cc(C)sc2C)c(C(=O)N(C)C)cc1OC` | cytotoxicity at 70.5 h: -19.4%

Item: `CC1CCN(C(=O)c2occc2COc2cccc(C#N)c2)CC1` | cytotoxicity at 70.5 h: 8.42%

Item: OC(CN(Cc1ccccc1)Cc1cccnc1)c1cccs1 (stereo unspecified) | cytotoxicity at 70.5 h: 10%

Item: C[S+]([O-])c1ccc(CNc2ccc(F)cc2OC(F)F)cc1 (stereo unspecified) | cytotoxicity at 70.5 h: -0.988%

Item: Cc1cc(NC2CCCN(Cc3ccc(F)cc3)C2)n2nc(C)cc2n1 (stereo unspecified) | cytotoxicity at 70.5 h: -0.0493%

Item: CC(C)c1n[nH]c(C2CN(C(=O)c3cccc4cn[nH]c34)CCO2)n1 (stereo unspecified) | cytotoxicity at 70.5 h: 3.42%

Item: COc1c(C2CCCN2Cc2nccn2C)c(C)nn1C (stereo unspecified) | cytotoxicity at 70.5 h: 2.44%

Item: COCC1CN(S(=O)(=O)Cc2ccc(C)cc2)Cc2c1cnn2C (stereo unspecified) | cytotoxicity at 70.5 h: -6.77%

Item: CCOc1ccc(CC(CNC(=O)c2ccc(C)o2)C(N)=O)cc1 (stereo unspecified) | cytotoxicity at 70.5 h: -10.7%

Item: `Cc1nnsc1CN1C[C@H]2CC[C@@H]1CN(Cc1ccccn1)C2` | cytotoxicity at 70.5 h: -6.51%

Item: NC(=O)C1(c2cnccn2)CCCN1C(=O)Cc1ccsc1 (stereo unspecified) | cytotoxicity at 70.5 h: -5.34%

Item: `COCCN1C(=O)CC[C@@H]2[C@H]1CCN2S(=O)(=O)c1cccs1` | cytotoxicity at 70.5 h: 20.8%

Item: CCCC(=O)N1CCC(Cc2ccccc2-c2ccccc2)(C(N)=O)C1 (stereo unspecified) | cytotoxicity at 70.5 h: -6.16%

Item: COCC(C)NC(=O)CN1CCC(C)CC1 (stereo unspecified) | cytotoxicity at 70.5 h: -20.8%
